Experiment: Pseudomonas biofilm growth suppression – PAO1 strain, BacTiter-Glo luminescence, LB-PBS, primary screen (AID 1144)
Details: P. aeruginosa PAO1 biofilm, 12 h, higher = more signal
PROPERTY_MEASURED: z-score
Form rule: numeric answer, no unit written next to it.

MOLECULE	OBS_VALUE
CCCC[C@@H]1C[C@H]1[C@@H](NC(=O)c1ccccc1)c1ccccc1	0.727
COc1cc(CO)cc(I)c1O[C@H]1C=C(C(=O)NCCO)C[C@@H](N(CCc2cccc(F)c2)C(=O)CCC2CCCC2)[C@@H]1O	-0.986
COc1ccc(C#Cc2ccc3c(c2)[C@]2(C(=O)N3)[C@H](C(=O)N3CCc4cc(OC)c(OC)cc4C3)[C@H]3C(=O)O[C@H](c4ccccc4)[C@H](c4ccccc4)N3[C@@H]2c2ccc(OCCO)cc2)cc1	-0.745

Quick one: give measured z-score for `CN(C)CCCC[C@@H]1NC(=O)[C@H]2C[C@@H](C(=O)NCCCCCNC(=O)CS)[C@@H](c3ccc(O)cc3)N2C1=O`
-0.315

Entry `CO[C@H]1O[C@H](CO)[C@@H](OC(=O)Nc2ccc(C(F)(F)F)cc2)[C@H](OC(=O)Nc2ccccc2)[C@@H]1OC(=O)Nc1ccccc1` needs its z-score filled in; supply it.
0.724

Tell me measured z-score for `C=C(CCCC)C(=O)CC[C@@H](OC(=O)c1ccccc1-c1ccccc1C(=O)O)c1ccc(CO)o1` please.
-0.0968

Give z-score for `CN(C)CCCC[C@@H]1NC(=O)[C@@H]2C[C@H](C(=O)NCCCCCCN)[C@H](c3ccc(O)cc3)N2C1=O`
-0.481

// Input: `NC(=O)[C@@]1(CCS(=O)(=O)c2ccccc2)N=C(c2ccc(OCCCO)cc2)O[C@H]1c1ccccc1` . Output its z-score only.
0.814

Indicate its recorded z-score; the molecule in question is CS(=O)(=O)CCOC(=O)C1=CC(c2ccc(CO)cc2)=CC(c2cccs2)N(Cc2cccc(OC(F)(F)F)c2)C=C1C(=O)OCCS(C)(=O)=O (stereo not given)
0.676

Find the measured z-score of `COc1c(C)cc(-c2cc3c(c(-c4ccccc4)n2)[Si](C(C)C)(C(C)C)O[C@H]3c2ccccc2)cc1C` and report it.
-0.0188

Give the value of z-score reported for the following: `COC(=O)[C@@]1(Cc2ccc(F)cc2)[C@H]2c3cc(C(=O)N(C)C)n(CCCNc4ccc(C(F)(F)F)cc4Cl)c3C[C@H]2CN1C(=O)c1ccccc1`
-0.119

Specify z-score for `C=CCN1Cc2ccccc2C[C@@]2(COC(c3ccc(OCCCO)cc3)=N2)C1=O` and stop.
-0.547

For the molecule `Cc1ccc(S[C@]2(C(=O)NCCCN(C)C)CC(=O)N(C(C)C)[C@@H]2c2ccc(CO)cc2I)cc1` , report z-score.
-0.985

Let me know recorded z-score for `CCCCC(=C=CC[C@H](O)c1ccccc1OCCO)C[C@H](O)c1cc(Cl)cc(Cl)c1O` , thanks.
-0.0417

Supply measured z-score of CC(C)C(CO)N1C(=O)[C@@H]2[C@H]3C(=O)OCC=C[C@H]3OC23C=CCN(c2ccc4ccccc4c2)C(=O)[C@@H]13 (stereo not given in full) in your reply.
2.05

Each recorded value in this set is attributed to PubChem BioAssay.
